TARGET_ENTITY: SNX27 PDZ domain, wild type (residues 39-131 of rat SNX27) (rat, UniProt Q8K4V4 39-131)
PROTOCOL_NOTES: fluorescence polarisation
Where no end group is shown, it is not given here. The star is where a group is joined. FITC = O=C1OC2(c3ccc(O)cc3Oc3cc(O)ccc32)c2ccc(NC(=S)*)cc21
REPORTED_PROPERTY: pKd
Numbers only, as −log10 of the molar value.

Asked: So what's the measured pKd for this one? {FITC}-TNDSLL [FITC-labeled peptide corresponding to the C-terminal six residues of the β2AR (TNDSLL)]
Given back: 4.77
